These measurements were taken from paper PMC2910040.

Target: BLMHM (BLM helicase module) (Homo sapiens, UniProt P54132 642-1290)
Sequence (P54132 642-1290): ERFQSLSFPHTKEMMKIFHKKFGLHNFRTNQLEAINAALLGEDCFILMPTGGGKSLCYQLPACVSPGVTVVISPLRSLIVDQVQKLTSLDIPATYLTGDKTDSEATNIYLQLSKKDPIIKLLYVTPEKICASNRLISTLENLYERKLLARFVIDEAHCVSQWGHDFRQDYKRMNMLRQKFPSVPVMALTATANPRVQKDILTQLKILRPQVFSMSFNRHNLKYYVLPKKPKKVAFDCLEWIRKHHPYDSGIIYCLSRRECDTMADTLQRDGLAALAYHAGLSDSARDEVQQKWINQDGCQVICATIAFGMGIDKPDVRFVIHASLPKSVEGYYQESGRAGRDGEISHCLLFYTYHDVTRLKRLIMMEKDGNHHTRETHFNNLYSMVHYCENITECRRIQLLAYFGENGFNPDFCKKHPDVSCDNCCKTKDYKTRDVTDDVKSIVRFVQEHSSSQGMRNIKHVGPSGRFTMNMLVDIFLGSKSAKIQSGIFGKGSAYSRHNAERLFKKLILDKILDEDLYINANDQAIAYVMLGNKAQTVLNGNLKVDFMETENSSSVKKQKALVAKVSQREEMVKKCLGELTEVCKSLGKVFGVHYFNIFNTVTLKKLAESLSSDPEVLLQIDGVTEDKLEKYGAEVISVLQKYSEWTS
Test: stopped-flow mdADP fluorescence amplitude titration

{"columns": ["BINDER", "Kd"],
 "data": [
  ["TTTTTTTTTTTTTTTTTT (ssDNA) [dT18]", "< 100 nM"]
]}
